Origin of measurements: patent US20240270762A1

tested on: P. aeruginosa ATCC 27853; test: microbe, parasite or virus in culture; type: cell-based; details: Pseudomonas aeruginosa, ATCC27853, read-out: MIC P. aeruginosa ATCC 27853
Readings of MIC for the listed molecules

Reference set (3 entries):
{"molecule": "CS(=O)(=O)N1CCN(C(=O)N[C@@H](C(=O)N[C@H]2Cc3cccc(C(=O)O)c3OB2O)c2cc(F)c(P(=O)(O)O)c(F)c2)C1=O (single isomer, unassigned) [Example 18]", "MIC": "> 128 µg/mL"}
{"molecule": "CC(C)S(=O)(=O)NC(C(=O)N[C@H]1Cc2cccc(C(=O)O)c2OB1O)c1ccc(P(=O)(O)O)cc1 (stereo partly drawn) [Example 60]", "MIC": "> 128 µg/mL"}
{"molecule": "O=C(O)c1cccc2c1OB(O)[C@@H](NC(=O)[C@H](NC(=O)N1CCCCC1=O)c1ccc(P(=O)(O)O)cc1)C2 [Example 37]", "MIC": "> 128 µg/mL"}

## Task Find the measured MIC: item CC(=O)N1CCC[C@H]1C(=O)NC(C(=O)N[C@H]1Cc2cccc(C(=O)O)c2OB1O)c1ccc(P(=O)(O)O)cc1 (stereo partly drawn) [Example 65] , target or system P. aeruginosa ATCC 27853.
## Result > 128 µg/mL

## Task Find the measured MIC: item O=C(O)c1c(F)ccc2c1OB(O)[C@@H](NC(=O)[C@H](NC(=O)N1CCN(Cc3ccc(O)c(O)c3Cl)C(=O)C1=O)c1ccc(P(=O)(O)O)cc1)C2 (single isomer, unassigned) [Example 160] , target or system P. aeruginosa ATCC 27853.
## Result < 1 µg/mL

## Task Find the measured MIC: item N#Cc1cccc(C(=O)N[C@@H](C(=O)N[C@H]2Cc3cccc(C(=O)O)c3OB2O)c2ccc(P(=O)(O)O)cc2)n1 [Example 180] , target or system P. aeruginosa ATCC 27853.
## Result > 128 µg/mL
